- TESTED_TARGET: Cytochrome P450 2C9 (Homo sapiens, UniProt P11712)
- Sequence (P11712 whole entry): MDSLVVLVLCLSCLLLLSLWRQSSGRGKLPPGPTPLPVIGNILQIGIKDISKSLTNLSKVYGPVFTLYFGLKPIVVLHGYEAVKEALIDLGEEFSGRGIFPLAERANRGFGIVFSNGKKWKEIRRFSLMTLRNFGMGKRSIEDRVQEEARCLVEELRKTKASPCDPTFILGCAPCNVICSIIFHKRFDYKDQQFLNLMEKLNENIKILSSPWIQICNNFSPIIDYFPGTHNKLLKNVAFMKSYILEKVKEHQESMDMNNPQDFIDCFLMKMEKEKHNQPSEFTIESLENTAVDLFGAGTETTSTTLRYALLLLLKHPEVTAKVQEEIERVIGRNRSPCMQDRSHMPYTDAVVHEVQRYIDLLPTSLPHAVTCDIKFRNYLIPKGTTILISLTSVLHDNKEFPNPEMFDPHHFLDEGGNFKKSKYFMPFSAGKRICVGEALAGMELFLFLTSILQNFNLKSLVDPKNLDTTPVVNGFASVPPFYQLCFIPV
- ASSAY_DETAILS: Inhibition of CYP2C9 (unknown origin) preincubated with protein for 30 mins followed by substrate addition
- Type: ADME
pIC50: −log10 of the molar value.
QUANTITY_NAME: pIC50

O=S(=O)(NC[C@@H]1OCC[C@@]2(S(=O)(=O)c3ccc(Cl)cc3)c3c(F)ccc(F)c3OC[C@@H]12)C(F)(F)F
5.31
O=S(=O)(N[C@@H]1CC[C@@]2(S(=O)(=O)c3ccc(Cl)cc3)c3c(F)ccc(F)c3OC[C@H]2C1)C(F)(F)F
> 6.52
O=S(=O)(N1CC[C@]2(CCC[C@@]3(S(=O)(=O)c4ccc(Cl)cc4)c4c(F)ccc(F)c4OC[C@@H]23)C1)C(F)(F)F
< 4.52
O=S(=O)(c1ccc(Cl)cc1)[C@@]12CCC[C@]3(CCOC3)[C@@H]1COc1c(F)ccc(F)c12 (stereo in doubt; (-)-14b)
< 4.70
O=S(=O)(N[C@H]1CC[C@@](c2cc(F)ccc2F)(S(=O)(=O)c2ccc(Cl)cc2)CC1)C(F)(F)F
> 6.52

Lab note: each compound below needs its pIC50 filled in.
1. O=S(=O)(c1ccc(Cl)cc1)[C@@]12CCCC(CO)(CO)[C@@H]1COc1c(F)ccc(F)c12
2. O=C1OCC[C@]12CCC[C@@]1(S(=O)(=O)c3ccc(Cl)cc3)c3c(F)ccc(F)c3OC[C@@H]21
3. O=S1(=O)CCC2(CCC[C@@]3(S(=O)(=O)c4ccc(Cl)cc4)c4c(F)ccc(F)c4OC[C@@H]23)CC1

Found:
4.68
< 4.52
< 4.70

====

- TESTED_TARGET: Cytochrome P450 3A4 (Homo sapiens)
- Sequence (P08684 whole entry): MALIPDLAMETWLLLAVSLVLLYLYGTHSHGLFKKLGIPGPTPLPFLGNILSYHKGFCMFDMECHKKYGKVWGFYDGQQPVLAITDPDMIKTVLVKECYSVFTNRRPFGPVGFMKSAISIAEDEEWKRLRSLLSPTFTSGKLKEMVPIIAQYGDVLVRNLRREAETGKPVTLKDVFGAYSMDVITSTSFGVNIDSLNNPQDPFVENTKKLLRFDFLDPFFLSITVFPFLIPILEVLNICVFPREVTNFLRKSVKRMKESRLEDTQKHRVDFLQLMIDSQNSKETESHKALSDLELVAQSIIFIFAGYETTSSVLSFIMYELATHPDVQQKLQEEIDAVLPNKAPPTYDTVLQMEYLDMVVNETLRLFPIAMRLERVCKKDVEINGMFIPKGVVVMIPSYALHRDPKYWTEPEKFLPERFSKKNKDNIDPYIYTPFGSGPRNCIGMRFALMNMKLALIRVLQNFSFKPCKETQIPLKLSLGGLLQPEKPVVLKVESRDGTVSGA
- ASSAY_DETAILS: Inhibition of CYP3A4 (unknown origin) preincubated with protein for 30 mins followed by substrate addition
- Type: ADME
Kindly state pIC50 for each of the entries shown.
Numbers only, as −log10 of the molar value.

O=S(=O)(N[C@@H]1CC[C@@]2(S(=O)(=O)c3ccc(Cl)cc3)c3c(F)ccc(F)c3OC[C@H]2C1)C(F)(F)F
5.46

Lookup: Report pIC50 on Cytochrome P450 3A4 (Homo sapiens) for this entry: O=S(=O)(c1ccc(Cl)cc1)[C@@]12CCCC(CO)(CO)[C@@H]1COc1c(F)ccc(F)c12
Found: 4.94

====

- ASSAY_DETAILS: Ratio of drug level in brain to plasma in Sprague-Dawley rat at 10 mg/kg, po
- Format: ADME, organism-based
- RUN_CONDITIONS: brain and plasma, read-out: BPR
QUANTITY_NAME: Kp
Answers are plain numbers.

O=S1(=O)CCC2(CCC[C@@]3(S(=O)(=O)c4ccc(Cl)cc4)c4c(F)ccc(F)c4OC[C@@H]23)CC1
0.2

Could you now look at the following compound, please?
Lookup: State, in one line, measured Kp of O=S(=O)(N[C@H]1CC[C@@](c2cc(F)ccc2F)(S(=O)(=O)c2ccc(Cl)cc2)CC1)C(F)(F)F
Found: 0.2

====

- TESTED_TARGET: Cytochrome P450 3A4 (Homo sapiens)
- ASSAY_DETAILS: Inhibition of CYP3A4 (unknown origin) co-incubated with substrate and protein
- Type: ADME
QUANTITY_NAME: IC50

O=S(=O)(N[C@@H]1CC[C@@]2(S(=O)(=O)c3ccc(Cl)cc3)c3c(F)ccc(F)c3OC[C@H]2C1)C(F)(F)F
9.6 µM

Lab note: each molecule below needs its IC50 filled in.
1. O=S1(=O)CCC2(CCC[C@@]3(S(=O)(=O)c4ccc(Cl)cc4)c4c(F)ccc(F)c4OC[C@@H]23)CC1
2. O=S(=O)(c1ccc(Cl)cc1)[C@@]12CCC[C@]3(CCOC3)[C@@H]1COc1c(F)ccc(F)c12 (stereo in doubt; (-)-14b)
3. O=S(=O)(N1CC[C@]2(CCC[C@@]3(S(=O)(=O)c4ccc(Cl)cc4)c4c(F)ccc(F)c4OC[C@@H]23)C1)C(F)(F)F
4. O=C1OCC[C@]12CCC[C@@]1(S(=O)(=O)c3ccc(Cl)cc3)c3c(F)ccc(F)c3OC[C@@H]21

Found:
> 20 µM
> 20 µM
> 30 µM
> 30 µM

Lab note: each molecule below needs its IC50 filled in.
1. O=S(=O)(c1ccc(Cl)cc1)[C@@]12CCCC(CO)(CO)[C@@H]1COc1c(F)ccc(F)c12
2. O=S(=O)(NC[C@@H]1OCC[C@@]2(S(=O)(=O)c3ccc(Cl)cc3)c3c(F)ccc(F)c3OC[C@@H]12)C(F)(F)F

Found:
["11 µM", "> 30 µM"]
